Field: binding intensity. Provide a value for each of the binders that follow.
system_tested: T1, human ROR2 expressed on the cell surface (human, UniProt Q01974 34-943)
T1 construct: Endogenous ROR2 of human tumour cell lines; also called cell surface ROR2; ROR2 on tumour cell lines
experimental_details: flow cytometry, NB5 cells (neuroblastoma)
Parameters: unit not given here
Numbers only.

| binder | recorded_metric | recorded_value |
| --- | --- | --- |
| ROR2-27 full length human IgG1 antibody (antibody, V domains shown, also called clone #27; clone #027 IgG1) VH: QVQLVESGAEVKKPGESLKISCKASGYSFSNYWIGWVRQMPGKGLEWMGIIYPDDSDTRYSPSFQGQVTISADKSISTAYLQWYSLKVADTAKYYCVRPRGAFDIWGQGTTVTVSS VL: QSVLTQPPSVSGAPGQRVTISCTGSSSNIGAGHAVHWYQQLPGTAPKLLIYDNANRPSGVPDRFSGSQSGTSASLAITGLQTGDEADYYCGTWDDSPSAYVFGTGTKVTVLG | binding intensity | 20 |
| ROR2-23 full length human IgG1 antibody (antibody, V domains shown, The light chain of clone 023 is labelled kappa; also called clone #23; clone #023 IgG1) VH: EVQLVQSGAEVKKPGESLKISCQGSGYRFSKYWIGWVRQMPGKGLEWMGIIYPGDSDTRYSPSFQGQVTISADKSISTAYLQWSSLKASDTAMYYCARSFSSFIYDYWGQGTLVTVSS VL: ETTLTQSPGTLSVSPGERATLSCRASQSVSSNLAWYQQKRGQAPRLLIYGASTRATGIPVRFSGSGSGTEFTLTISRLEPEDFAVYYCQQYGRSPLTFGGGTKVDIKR | binding intensity | 32 |

Q: Please report the recorded binding intensity for ROR2-90 full length human IgG1 antibody (antibody, V domains shown, also called clone #90; antibody #90) VH: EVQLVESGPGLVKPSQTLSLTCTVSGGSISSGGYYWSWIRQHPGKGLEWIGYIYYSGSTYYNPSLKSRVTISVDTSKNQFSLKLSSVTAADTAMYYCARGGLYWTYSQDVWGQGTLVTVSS VL: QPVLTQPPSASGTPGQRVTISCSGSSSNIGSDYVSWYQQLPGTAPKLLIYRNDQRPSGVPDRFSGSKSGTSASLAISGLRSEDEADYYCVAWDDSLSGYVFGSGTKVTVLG .
Ans: 47
